# Test system: RXRa DBDmut IVT, anti-RXR (DBD mutation: RXRa K156A/R161A, NR concentration 90 nM)
# protocol description: PBM binding z-score (relative to random genomic background probes); higher = stronger binding; sequences stand for … in GC…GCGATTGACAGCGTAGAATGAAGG

[
  {
    "residue codes": "CGAACTAGGTCAAGTACAGTGAATCTCCGCACGC",
    "PBM binding z-score": 2
  },
  {
    "residue codes": "TTTCAAAGTTCAAAGGTAACGTAAGTATCCACAC",
    "PBM binding z-score": 4.68
  },
  {
    "residue codes": "GCTAGTTGGTCAGTAACAGGTCACACACCGGTCG",
    "PBM binding z-score": 0.0356
  },
  {
    "residue codes": "AGAATGAGCTTATTAAGATCAGGGAATTGCGGTC",
    "PBM binding z-score": -0.496
  },
  {
    "residue codes": "GGAACGAGGGCAATCGAGTTGATAGCATGGCGAT",
    "PBM binding z-score": 1.84
  },
  {
    "residue codes": "TCATATAGCTAAATGCTAGGTGAAAGTCCGATCT",
    "PBM binding z-score": 0.952
  },
  {
    "residue codes": "TCGAGTAGGTTAAGGGCATTCAGAATGGCGTCGA",
    "PBM binding z-score": 0.693
  },
  {
    "residue codes": "ATCTCTAGGTAAAGATAGTTCAGTCAATGCAAAT",
    "PBM binding z-score": 0.26
  },
  {
    "residue codes": "GCTATTAGTTCAAAGGGCAACCGAATGATTCTCG",
    "PBM binding z-score": 3.02
  },
  {
    "residue codes": "GGAACTAGGGCATTCGAGTTGATAGCATGGCGAT",
    "PBM binding z-score": 0.774
  },
  {
    "residue codes": "ACTATTAGTTGACCTAGGGCAACCGATACGACGC",
    "PBM binding z-score": 0.89
  },
  {
    "residue codes": "CCGGCTAGGTCAATGGTCAGCTAAAGCAGCTCGC",
    "PBM binding z-score": 1.33
  }
]
